Every entry's value here was drawn from patent US5073562A.

target: LTB4 Receptor (Homo sapiens); construct: Neutrophils were purified from venous blood of normal human donors; endogenous in cells; host or cells: human peripheral blood neutrophils (purity >95%); experiment: LTB4 Receptor Binding Assay ((3H) LTB4, neutrophils); settings: potency relative to the compound of Example 1(b), defined as 1.0, 0.6×10^-9 M (3H) LTB4, 0° C., 45 minutes
Sequence (Q15722 whole entry): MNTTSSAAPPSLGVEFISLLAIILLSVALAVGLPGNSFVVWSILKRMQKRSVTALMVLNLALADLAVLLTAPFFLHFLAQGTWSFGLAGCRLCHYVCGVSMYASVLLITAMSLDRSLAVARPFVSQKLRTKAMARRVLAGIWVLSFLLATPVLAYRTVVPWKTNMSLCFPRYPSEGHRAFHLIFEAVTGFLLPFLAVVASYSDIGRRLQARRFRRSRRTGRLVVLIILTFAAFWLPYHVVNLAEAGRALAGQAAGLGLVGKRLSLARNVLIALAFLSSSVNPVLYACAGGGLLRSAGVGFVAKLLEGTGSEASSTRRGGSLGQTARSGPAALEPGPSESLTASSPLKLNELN
// assign true if Relative Potency, LTB4 Receptor Binding falls strictly below 0.5, else false (ties count as false)

CCCc1c(OCCCOc2ccc(-c3csc(N)n3)c(OC)c2CCC)ccc2c1OC(C(=O)O)CC2 (centres unmarked) [Example 10]    false
CCCc1c(OCCCOc2ccc(-c3cocn3)c(OC)c2CCC)ccc2c1OC(C(=O)O)CC2 (centres unmarked) [Example 5]    false
CCCc1c(OCCCOc2ccc(-c3csc(SC)n3)c(OC)c2CCC)ccc2c1OC(C(=O)O)CC2 (centres unmarked) [Example 28]    true
CCCc1c(OCCCOc2ccc(-c3c[nH]c(SCc4ccccc4)n3)c(OC)c2CCC)ccc2c1OC(C(=O)O)CC2 (centres unmarked) [Example 8]    false
CCCc1c(OCCCOc2ccc(-c3coc(C)n3)c(OC)c2CCC)ccc2c1OC(C(=O)O)CC2 (centres unmarked) [Example 14]    true
CCCc1c(OCCCOc2ccc(-c3csc(SCc4ccccc4)n3)c(OC)c2CCC)ccc2c1OC(C(=O)O)CC2 (centres unmarked) [Example 29]    true

Query string: Given the entry CCCc1c(OCCCOc2ccc(-c3csc(OC)n3)c(OC)c2CCC)ccc2c1OC(C(=O)O)CC2 (centres unmarked) [Example 24] , would its reported Relative Potency, LTB4 Receptor Binding be below 0.5?
Result string: true
